- Method Notes: Stability in phosphate buffer assessed as half life of prodrug hydrolysis at 5 mg at pH 7.4 by HPLC
- Format: physicochemical
- Condition Notes: in vitro
Property Label: t1/2 (h)
Report only the number, with the unit h understood.

The reported value for CC[C@@]1(OC(=O)CN)C(=O)OCc2c1cc1n(c2=O)Cc2cc3ccccc3nc2-1 in terms of t1/2 is 1.774

The reported value for CC[C@@]1(OC(=O)[C@@H](C)N)C(=O)OCc2c1cc1n(c2=O)Cc2cc3ccccc3nc2-1 in terms of t1/2 is 2.496

The reported value for CCC[C@@H](N)C(=O)O[C@]1(CC)C(=O)OCc2c1cc1n(c2=O)Cc2cc3ccccc3nc2-1 in terms of t1/2 is 2.926

The reported value for CC[C@@H](N)C(=O)O[C@]1(CC)C(=O)OCc2c1cc1n(c2=O)Cc2cc3ccccc3nc2-1 in terms of t1/2 is 2.934
